All figures here come from ChEMBL document CHEMBL1201862.

- Tested on: LOX IMVI
- Experiment Notes: NCI tumour cell line growth inhibition, 48 h
Active and inactive are the calls of the source. Rule as the data show it: active = GI50 up to about 1.1 µM and inactive = higher.
Pick from 1 (yes) = active, 0 (no) = inactive when you respond.

CC1=C(C)C(=O)O[C@@H]([C@](C)(O)[C@]2(O)CC[C@@]3(O)[C@@H]4C[C@H]5O[C@]56[C@@H](O)C=CC(=O)[C@]6(C)[C@H]4CC[C@]23C)C1; 1 (yes)
COc1ccc(O)c(C#N)c1C#N; 1 (yes)
O=C(/C=C/c1ccccc1)c1cc(C(=O)/C=C/c2ccccc2)c(O)cc1O; 0 (no)
O=C1C(=C(C(=O)c2ccccc2)C(=O)c2ccccc2)OC(c2ccccc2)=C1C(=O)c1ccccc1; 0 (no)
COc1cc(NS(C)(=O)=O)ccc1Nc1c2ccccc2nc2ccccc12; 1 (yes)

Fill in: this test's call for CCN(CC)CCCNc1ccc([N+](=O)[O-])c2nc3ccc(OC)cc3c(N)c12 is ___
0 (no)

Fill in: this test's call for CC1(C)OC(CCC#N)CN1C(=O)OCc1ccccc1 (centres undefined) is ___
0 (no)

Fill in: this test's call for Cc1cc(S(=O)(=O)Nc2nc(Nc3ccccc3)n[nH]2)c(SCC(=O)O)cc1Cl is ___
0 (no)

Fill in: this test's call for Cc1c(O)ccc2c(O)c(NC(=O)c3ccc4c(c3)CCC(C)(C)O4)c(=O)oc12 is ___
0 (no)

----------
- Test system: IGROV-1
- Experiment Notes: NCI tumour cell line growth inhibition, 48 h
Calls of active or inactive are those of the source. Rule as the data show it: active = GI50 up to about 1.1 µM and inactive = higher.
Exercise: state measured GI50 for each of the compounds provided.

Example entries and their recorded answers appear below.
COc1ccc2c(c1)c(CC(=O)O)c(C)n2C(=O)c1ccc(Cl)cc1; > 100 µM (inactive)
CCc1c(OC(C)=O)c2c(NC3OC(COC(C)=O)C(OC(C)=O)C(OC(C)=O)C3OC(C)=O)nc(SC)nc2oc1=O (stereo not given); > 100 µM (inactive)
CN1C2(c3ccccc3)c3c(-c4ccccc4)sc(-c4ccccc4)c3C1(c1ccccc1)C1C(=O)N(c3ccccc3)C(=O)C12 (stereo not given); > 100 µM (inactive)
Cc1ccc(O)c(C2=CC(c3cccc(Cl)c3)SC(=N)N2)c1 (stereo not given); 19.1 µM (inactive)

API: the following record is the query input.
Consider the compound CC(Oc1ccc2cc(C(=O)c3ccccc3)c(=O)oc2c1)C(=O)O (stereo not given) and give its recorded GI50.
> 100 µM (inactive)

----------
- Test system: SK-MEL-5
- Experiment Notes: NCI tumour cell line growth inhibition, 48 h
The source made the active and inactive calls. No stated cut-off is given here; in the data, active = GI50 up to about 1.1 µM and inactive = higher.
Exercise: state measured GI50 for each of the molecules provided.

Example entries and their recorded answers appear below.
O=C1C2ON3c4ccccc4C(=O)C3(c3ccccc3)C2C(=O)N1c1ccccc1 (configuration not stated); > 100 µM (inactive)
COc1ccc2nc3c(c(NCCCN(C)C)c2c1)CCCC3; 15.8 µM (inactive)

Please report GI50 for every entry that follows.
1. Cc1ccc2nc(-c3ccc(N4C(=O)C(Cl)C4c4ccc(Cl)cc4)cc3)sc2c1 (configuration not stated)
2. COc1ccccc1C1C2=C(COC2=O)OC(C)(C)Oc2cc3c(cc21)OCO3 (configuration not stated)
3. CCOC(=O)Cc1nc2ccccc2s1

1. 14.2 µM (inactive)
2. 3.36 µM (inactive)
3. 20.6 µM (inactive)

Please report GI50 for every entry that follows.
1. C/C(=N\Nc1nc2ccccc2n1C)c1ccc2ccccc2n1
2. CCN(CC)C(=S)Oc1cc2oc(=O)cc(C)c2cc1Cl

1: 1.24 µM (inactive); 2: > 100 µM (inactive)
